Hello, the source for this data is patent US20250361297A1, in case you need it.

ASSAY SYSTEM: T1, human Siglec-15, full length, expressed on cells (human, UniProt Q6ZMC9 20-328)
T1 construct: also called hS15; MOLM-13 Siglec-15 expressing cells
T1 sequence: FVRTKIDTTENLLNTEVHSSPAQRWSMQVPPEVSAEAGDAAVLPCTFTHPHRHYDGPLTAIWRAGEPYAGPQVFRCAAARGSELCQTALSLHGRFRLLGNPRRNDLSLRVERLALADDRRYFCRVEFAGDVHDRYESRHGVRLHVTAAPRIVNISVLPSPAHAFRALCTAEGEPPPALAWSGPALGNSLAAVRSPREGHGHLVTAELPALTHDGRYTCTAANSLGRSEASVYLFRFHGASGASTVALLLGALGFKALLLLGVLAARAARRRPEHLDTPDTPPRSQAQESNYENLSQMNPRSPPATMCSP
PROTOCOL: IgG1 titration, flow cytometry on MOLM-13 human Siglec-15 cells
This section presents binders with their documented EC50 values.

BINDER	EC50 / µg/mL
ZLA-1212-B05 (antibody, V domains shown, Fully human, from phage display; also called clone ZLA-1212-B05) VH: QVQLVQSGGGVVQPGRSLRLSCAASGFTFSSYAMHWVRQAPGKGLEWVAVISYDGSNKYYADSVKGRFTISRDNSKNTLYLQMNSLRAEDTAVYYCAREGGSYYGYFDYWGQGTLVTVSS VL: QSVLTQPPSVSVAPGKTARITCGGNNIGSKSVHWYQQKPGQAPVLVIYDDSDRPSGIPERFSGSNSGNTATLTISRVEAGDEADYYCQVWDSSSDHRVFGGGTKLTVL	0.215
ZLA-1212-E09 (antibody, V domains shown, also called clone ZLA-1212-E09) VH: QVQLVQSGGGVVQPGRSLRLSCAASGFTFSSYGMHWVRQAPGKGLEWVAVISYDGSNKYYADSVKGRFTISRDNSKNTLYLQMNSLRAEDTAVYYCAKDDSGYYDSSGYDYWGQGTLVTVSS VL: QSVLTQPPSVSGAPGQRVTISCTGSSSNIGAGYDVHWYQQLPGTAPKLLIYGNSNRPSGVPDRFSGSKSGTSASLAITGLQAEDEADYYCQSYDSSLSGVVFGGGTKLTVL	0.178
ZLA-1243-E01 (antibody, V domains shown, Fully human, from phage display) VH: QVQLVQSGGGLVQPGRSLRLSCAASGFTFDDYAMHWVRQAPGKGLEWVSGISWNSGSIGYADSVKGRFTISRDNAKNSLYLQMNSLRAEDTALYYCAKGLWPSYDLDAFDIWGQGTMVTVSS VL: QSALTQPASVSGSPGQSITLSCTGTSSDVGAYNFVSWYQQHPGTAPKLMIYEVSNRPSGVSDRFSGSKSGNTASLTISGLQAEDEADYYCSSYTSTIPPFVFGTGTKVTVL	0.174
ZLA-1214-H05 (antibody, V domains shown, Fully human, from phage display) VH: QVQLVQSGAEVKKPGASVKVSCKASGYTFTSYGISWVRQAPGQGLEWMGWISAYNGNTNYAQKLQGRVTMTTDTSTSTAYMELRSLRSDDTAVYYCARMSGYYGMDVWGQGTLVTVSS VL: DIQLTQSPSSLSASVGDRVTITCQASQGISNYLNWYQQKPGKAPKLLIYDASNLETGVPSRFSGSGSGTDFTFTISSLQPEDIATYYCQQYDNLPLTFGGGTKLEIK	0.593
